- target.under.test: KRas G12D (Homo sapiens, UniProt P01116, G12D)
- Sequence (P01116 1-169 isoform P01116-2 G12D): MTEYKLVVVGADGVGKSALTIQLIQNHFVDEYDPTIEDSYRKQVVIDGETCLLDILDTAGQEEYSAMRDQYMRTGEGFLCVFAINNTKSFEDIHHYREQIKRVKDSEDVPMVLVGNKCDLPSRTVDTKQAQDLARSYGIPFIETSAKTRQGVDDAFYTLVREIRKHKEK
- assay.method.text: biochemical
- settings: Binding to KRas (IC50 nM) G12D, TR-FRET displacement, KRas G12D
Could you please mark rule met for values of IC50 below 3 nM and rule not met for values at or above it?

Worked examples follow.
CCc1c(F)ccc2cc(O)cc(N3CCc4c(nc(OC[C@@]56CCCN5C[C@H](F)C6)nc4N4CCCn5nc(C(=O)N6CC[C@@H]7CC[C@H]6C7)cc5C4)C3)c12 [Example 338] | rule met
CCc1cccc2cccc(N3CCc4c(nc(OCC5(CN(C)C)CC5)nc4N4CCOCC(C)C4)C3)c12 (stereo not drawn) [Example 664] | rule not met
CCc1c(F)ccc2cc(O)cc(N3CCc4c(nc(OC[C@@]56CCCN5C[C@H](F)C6)nc4N4CCCc5occc5C4)C3)c12 [Example 423] | rule not met
CCc1c(F)ccc2cc(O)cc(N3CCc4c(nc(OC[C@@]56CCCN5C[C@H](F)C6)nc4N4CCCC5(C4)NC(=O)N(C)C5=O)C3)c12 (stereo partly drawn) [Example 644] | rule not met
O=C1NC(=O)[C@]2(CCCN(c3nc(OC[C@@]45CCCN4C[C@H](F)C5)nc4c3CCN(c3cc(O)cc5ccc(F)c(Cl)c35)C4)C2)N1 [Example 587] | rule met

stdin: Please determine if CCc1c(C(=O)N(C)C)nn2c1CN(c1nc(OC[C@@]34CCCN3C[C@H](F)C4)nc3c1CCN(c1cc(O)cc4ccc(F)c(CC)c14)C3)CCC2 [Example 372] is below 3 nM in terms of IC50.
stdout: rule met

stdin: Does the reported IC50 of the following compound sit strictly below 3 nM? CCc1cccc2cccc(N3CCc4c(nc(OCC5(CN(C)C)CC5)nc4NCc4nnc(C5CCOC5)[nH]4)C3)c12 (stereo not drawn) [Example 691]
stdout: rule not met

stdin: Threshold test, IC50 < 3 nM: CCc1c(F)ccc2cc(O)cc(N3CCc4c(nc(OC[C@@]56CCCN5C[C@H](F)C6)nc4N4CCCn5nnc(Br)c5C4)C3)c12 [Example 284]
stdout: rule met

stdin: Dear reviewer, please state whether CCc1c(F)ccc2cc(O)cc(N3CCc4c(nc(OC[C@@]56CCCN5C[C@H](F)C6)nc4N4CCCn5nc(C(=O)N6C[C@H](C)N[C@@H](C)C6)cc5C4)C3)c12 [Example 282] has IC50 strictly beneath 3 nM.
stdout: rule met

stdin: # check: IC50 < 3 nM for CCc1cccc2cccc(N3CCc4c(nc(OCC5(CN(C)C)CC5)nc4N4CCn5nncc5C4)C3)c12 [Example 665]
stdout: rule not met

stdin: Say whether its IC50 is strictly beneath 3 nM. Entry: CCc1c(F)ccc2cc(O)cc(N3CCc4c(nc(OC[C@@]56CCCN5C[C@H](F)C6)nc4N4CCCn5nc(C(=O)N6C7CCCC6CC7)cc5C4)C3)c12 [Example 341]
stdout: rule met

----------
- Tested on: HCT116 cells
- assay.method.text: Inhibition of KRas-mediated phosphorylation of ERK (Cisbio HTRF pERK), HCT116 cells
- Format: cell-based
- settings: Homo sapiens, HCT-116, 3 h, 3 hr compound incubation
quantity.name: log10(IC50) (log10 of the value in nM)
Please be aware that the numbers have been log10-transformed from IC50 in nM.

C[C@@H]1C[C@@H]1c1c(Cl)cc(O)cc1N1CCc2c(nc(OC[C@@]34CCCN3C[C@H](F)C4)nc2N2CCC[C@]3(C2)NC(=O)NC3=O)C1 (stereo in doubt) | 1.45
C[C@@H]1C[C@@H]1c1c(Cl)cc(O)cc1N1CCc2c(nc(OC[C@@]34CCCN3C[C@H](F)C4)nc2N2CCC[C@]3(CNS(=O)(=O)N3)C2)C1 (stereo in doubt) | 2.28
C[C@@]1(O)COCCN(c2nc(OC[C@@]34CCCN3C[C@H](F)C4)nc3c2CCN(c2ccc(F)c4sc(N)c(C#N)c24)C3)C1 | 3.27
C[C@@H]1C[C@@H]1c1c(Cl)cc(O)cc1N1CCc2c(nc(OC[C@@]34CCCN3C[C@H](F)C4)nc2N2CCC[C@@](C)(O)C2)C1 (stereo in doubt) | 2.97

stdin: Find the measured log10(IC50) of C=C1CN2CCCC2(COc2nc3c(c(N4CCCC5(CNS(=O)(=O)N5)C4)n2)CCN(c2cc(O)cc4ccc(F)c(CC)c24)C3)C1 (stereo not drawn) and report it.
stdout: 2.38

Each recorded value in this set is attributed to patent US20250368649A1.
